Reported % Control Activity of ME-DNA-P1 at 100μg values are given for each entry in this list.
Tested on: mouse embryo DNA-polymerase I (ME-DNA-P1)
EXPERIMENTAL_PROTOCOL: effect on mouse embryo DNA-polymerase I
Assay type: biochemical
CONDITION: 100μg; activated Calf-Thymus DNA
The answer is to be given in %; state only the numeric part.

Suppose we examine the molecule COC1C=COC2(C)Oc3c(C)c(O)c4c(O)c(c(C=NNc5ccc([N+](=O)[O-])cc5[N+](=O)[O-])c(O)c4c3C2=O)NC(=O)C(C)=CC=CC(C)C(O)C(C)C(O)C(C)C(OC(C)=O)C1C (stereo not drawn) ; what % Control Activity of ME-DNA-P1 at 100μg value has been reported?
11

Suppose we examine the molecule `CO[C@H]1/C=C/O[C@@]2(C)Oc3c(C)c(O)c4c(c3C2=O)C(=O)C=C(NC(=O)/C(C)=C\C=C\[C@H](C)[C@H](O)[C@@H](C)[C@@H](O)[C@@H](C)[C@H](OC(C)=O)[C@@H]1C)C4=O` ; what % Control Activity of ME-DNA-P1 at 100μg value has been reported?
86

Suppose we examine the molecule COC1C=COC2(C)Oc3c(C)c(O)c4c(O)c(c(C=NN5CCN(C)CC5)c(O)c4c3C2=O)NC(=O)C(C)=CC=CC(C)C(O)C(C)C(O)C(C)C(OC(C)=O)C1C (stereo not drawn) ; what % Control Activity of ME-DNA-P1 at 100μg value has been reported?
56
